The values you see were collected from patent US9586951B2.

Target: ATM (Homo sapiens)
Construct: detecting phosphorylation of Chk2 in a human non-small cell lung cancer cell line NCI-H460 (ATCC company); host or cells: NCI-H460 human non-small cell lung cancer cells
Assay: ATM inhibition test (phosphorylation of Chk2 generated by ionizing radiation, AlphaScreen SureFire)
Assay type: cell-based
Details: phosphorylated Chk2 in NCI-H460 cells, ionizing radiation 8Gy, 1 hour after test compound treatment; read-out: ATM inhibitory activity
pIC50: −log10 of the molar value.
# key: entry, value: pIC50

Exercise: I am curious: what pIC50 value has been reported for COc1ncc(CNc2ccc3c(c2)Cc2cccc(-c4cc(N5CCOCC5)cc(=O)[nH]4)c2O3)cc1F ?
Key: 6.30 to 7.00

###

Target: ATM (Homo sapiens, UniProt Q13315)
Construct: detecting phosphorylation of Chk2 in a human non-small cell lung cancer cell line NCI-H460 (ATCC company); host or cells: NCI-H460 human non-small cell lung cancer cells
Sequence (Q13315 whole entry): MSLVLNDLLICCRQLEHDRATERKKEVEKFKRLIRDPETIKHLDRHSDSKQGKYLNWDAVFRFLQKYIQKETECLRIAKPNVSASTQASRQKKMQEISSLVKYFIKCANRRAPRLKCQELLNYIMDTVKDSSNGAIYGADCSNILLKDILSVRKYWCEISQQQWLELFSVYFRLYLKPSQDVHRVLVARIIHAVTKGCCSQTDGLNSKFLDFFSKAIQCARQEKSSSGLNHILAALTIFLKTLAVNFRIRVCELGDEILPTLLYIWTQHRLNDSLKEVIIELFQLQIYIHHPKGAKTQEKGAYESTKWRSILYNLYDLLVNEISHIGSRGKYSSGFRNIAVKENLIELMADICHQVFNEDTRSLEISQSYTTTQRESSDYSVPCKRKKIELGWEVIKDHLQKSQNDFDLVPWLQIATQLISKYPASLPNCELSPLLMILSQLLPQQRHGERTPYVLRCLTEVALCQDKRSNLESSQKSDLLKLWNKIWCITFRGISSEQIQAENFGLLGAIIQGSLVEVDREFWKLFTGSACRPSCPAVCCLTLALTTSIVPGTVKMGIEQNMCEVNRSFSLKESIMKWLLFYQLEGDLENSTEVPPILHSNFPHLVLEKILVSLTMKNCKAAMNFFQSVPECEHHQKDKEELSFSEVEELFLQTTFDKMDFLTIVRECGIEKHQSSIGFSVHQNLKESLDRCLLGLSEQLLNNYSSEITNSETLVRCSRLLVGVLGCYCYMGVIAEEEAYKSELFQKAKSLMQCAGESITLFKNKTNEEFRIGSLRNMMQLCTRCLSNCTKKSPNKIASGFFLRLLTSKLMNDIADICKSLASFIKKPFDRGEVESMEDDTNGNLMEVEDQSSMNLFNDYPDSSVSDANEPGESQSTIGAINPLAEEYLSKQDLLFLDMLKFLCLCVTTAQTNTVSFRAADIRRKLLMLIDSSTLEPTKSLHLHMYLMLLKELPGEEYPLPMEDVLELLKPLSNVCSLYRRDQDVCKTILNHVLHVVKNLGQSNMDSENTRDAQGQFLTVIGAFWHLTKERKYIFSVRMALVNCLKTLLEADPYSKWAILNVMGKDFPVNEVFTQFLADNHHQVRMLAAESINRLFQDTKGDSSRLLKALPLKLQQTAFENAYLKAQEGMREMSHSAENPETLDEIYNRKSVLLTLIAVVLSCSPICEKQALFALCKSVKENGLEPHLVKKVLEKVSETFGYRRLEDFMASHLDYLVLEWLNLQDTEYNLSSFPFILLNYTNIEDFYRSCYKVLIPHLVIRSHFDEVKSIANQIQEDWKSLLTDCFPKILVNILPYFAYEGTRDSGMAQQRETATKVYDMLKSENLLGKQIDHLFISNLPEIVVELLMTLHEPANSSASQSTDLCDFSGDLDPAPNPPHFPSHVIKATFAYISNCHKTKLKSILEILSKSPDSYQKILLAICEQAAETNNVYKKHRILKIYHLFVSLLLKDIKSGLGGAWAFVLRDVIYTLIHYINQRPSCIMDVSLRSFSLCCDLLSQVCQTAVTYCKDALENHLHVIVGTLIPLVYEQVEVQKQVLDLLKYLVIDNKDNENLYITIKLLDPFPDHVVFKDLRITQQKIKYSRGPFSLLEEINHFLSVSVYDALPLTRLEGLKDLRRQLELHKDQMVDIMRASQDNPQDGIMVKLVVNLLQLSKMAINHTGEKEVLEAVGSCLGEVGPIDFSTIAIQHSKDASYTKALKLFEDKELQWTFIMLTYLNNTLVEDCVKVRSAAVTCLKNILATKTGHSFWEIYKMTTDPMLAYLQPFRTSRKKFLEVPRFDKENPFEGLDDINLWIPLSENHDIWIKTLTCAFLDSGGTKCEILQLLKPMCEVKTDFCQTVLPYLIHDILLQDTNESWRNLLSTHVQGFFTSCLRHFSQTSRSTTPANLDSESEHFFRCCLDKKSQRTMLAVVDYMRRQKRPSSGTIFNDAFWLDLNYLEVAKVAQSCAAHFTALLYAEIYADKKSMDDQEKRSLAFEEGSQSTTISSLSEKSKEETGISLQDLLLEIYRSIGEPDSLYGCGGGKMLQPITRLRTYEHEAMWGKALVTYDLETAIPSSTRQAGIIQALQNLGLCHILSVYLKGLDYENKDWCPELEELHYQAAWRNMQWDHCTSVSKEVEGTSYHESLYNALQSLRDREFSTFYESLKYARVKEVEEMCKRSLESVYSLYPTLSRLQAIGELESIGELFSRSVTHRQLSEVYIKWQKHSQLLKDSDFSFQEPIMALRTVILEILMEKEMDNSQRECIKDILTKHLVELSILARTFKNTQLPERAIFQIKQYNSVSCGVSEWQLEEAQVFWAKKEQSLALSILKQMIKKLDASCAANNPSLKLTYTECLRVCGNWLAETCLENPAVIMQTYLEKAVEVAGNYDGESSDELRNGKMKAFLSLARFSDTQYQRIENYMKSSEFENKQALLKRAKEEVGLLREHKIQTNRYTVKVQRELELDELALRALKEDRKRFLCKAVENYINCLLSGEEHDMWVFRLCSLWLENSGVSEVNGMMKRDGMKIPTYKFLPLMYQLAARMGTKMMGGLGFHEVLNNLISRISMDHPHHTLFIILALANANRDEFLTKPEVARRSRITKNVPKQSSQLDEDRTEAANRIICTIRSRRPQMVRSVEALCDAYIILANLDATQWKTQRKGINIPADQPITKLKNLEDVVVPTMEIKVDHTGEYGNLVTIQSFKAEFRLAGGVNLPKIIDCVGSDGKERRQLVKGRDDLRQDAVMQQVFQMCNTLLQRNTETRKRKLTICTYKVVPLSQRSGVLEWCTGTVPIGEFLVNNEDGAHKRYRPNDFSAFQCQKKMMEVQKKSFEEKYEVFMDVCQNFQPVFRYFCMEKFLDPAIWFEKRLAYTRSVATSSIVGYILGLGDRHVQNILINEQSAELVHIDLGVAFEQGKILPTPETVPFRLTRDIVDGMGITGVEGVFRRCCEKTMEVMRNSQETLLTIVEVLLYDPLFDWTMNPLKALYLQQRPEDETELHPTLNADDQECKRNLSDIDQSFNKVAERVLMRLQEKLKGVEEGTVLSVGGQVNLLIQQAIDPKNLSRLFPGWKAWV
Assay: ATM inhibition test (phosphorylation of Chk2 generated by ionizing radiation, AlphaScreen SureFire)
Assay type: cell-based
Conditions: phosphorylated Chk2 in NCI-H460 cells, ionizing radiation 8Gy, 1 hour after test compound treatment; read-out: ATM inhibitory activity
Property label: IC50

• CC(Nc1ccc2c(c1)Sc1cccc(-c3cc(N4CCOCC4)cc(=O)[nH]3)c1S2)c1cnccn1 (centres unmarked) = < 100 nM
• CN1CCC[C@H]1CNc1ccc2c(c1)Sc1cccc(-c3cc(N4CCOCC4)cc(=O)[nH]3)c1S2 = 100 to 500 nM
• Cc1ccc(C(CC2CC2)Nc2ccc3c(c2)Sc2cccc(-c4cc(N5CCOCC5)cc(=O)[nH]4)c2S3)nc1 (centres unmarked) = 100 to 500 nM
• COC(=O)CCCCN1CCC(Nc2ccc3c(c2)Cc2cccc(-c4cc(N5CCOCC5)cc(=O)[nH]4)c2O3)CC1 = 100 to 500 nM
• COc1cnccc1CNc1ccc2c(c1)Cc1cccc(-c3cc(N4CCOCC4)cc(=O)[nH]3)c1O2 = 100 to 500 nM

Exercise: Form entry - test system: ATM (Homo sapiens, UniProt Q13315); read-out: IC50; molecule: COCC(CN1CC2CCC(C1)O2)Nc1ccc2c(c1)Sc1cccc(-c3cc(N4CCOCC4)cc(=O)[nH]3)c1S2 (centres unmarked)
Key: < 100 nM

Exercise: Also need CN(C)c1ncc(CNc2ccc3c(c2)Sc2cccc(-c4cc(N5CCOCC5)cc(=O)[nH]4)c2S3)cn1 , thanks.
Key: < 100 nM

Exercise: Can you handle O=c1cc(N2CCOCC2)cc(-c2cccc3c2Oc2ccc(NCc4ccc(Cl)nc4)cc2S3)[nH]1 next?
Key: < 100 nM

###

Target: ATM (Homo sapiens)
Construct: detecting phosphorylation of Chk2 in a human non-small cell lung cancer cell line NCI-H460 (ATCC company); host or cells: NCI-H460 human non-small cell lung cancer cells
Assay: ATM inhibition test (phosphorylation of Chk2 generated by ionizing radiation, AlphaScreen SureFire)
Assay type: cell-based
Conditions: phosphorylated Chk2 in NCI-H460 cells, ionizing radiation 8Gy, 1 hour after test compound treatment; read-out: ATM inhibitory activity
pIC50: −log10 of the molar value.
Property label: pIC50

- CN[C@@H](Cc1ccccc1)C(=O)Nc1ccc2c(c1)Sc1cccc(-c3cc(N4CCOCC4)cc(=O)[nH]3)c1S2 [Example 1-4]: 6.30 to 7.00
- Nc1ccc2c(c1)Cc1cccc(-c3cc(N4CCOCC4)cc(=O)[nH]3)c1S2 [Example 3-1]: 5.70 to 6.30
- O=c1cc(N2CCOCC2)cc(-c2cccc3c2Oc2ccc(NC4CCN(CCCF)CC4)cc2C3)[nH]1 [Example 2-30-12]: 5.70 to 6.30
- O=c1cc(N2CCOCC2)cc(-c2cccc3c2Sc2ccc(NC(CF)CN4CCOCC4)cc2S3)[nH]1 (single isomer, unassigned) [Example 1-41-1-3]: 6.30 to 7.00
- COc1ccnc(C(C)Nc2ccc3c(c2)Cc2cccc(-c4cc(N5CCOCC5)cc(=O)[nH]4)c2O3)c1 (single isomer, unassigned) [Example 2-14-86-1]: 6.30 to 7.00

Exercise: Given the compound Cc1ccnc(C(C)Nc2ccc3c(c2)Sc2cccc(-c4cc(N5CCOCC5)cc(=O)[nH]4)c2S3)c1 (single isomer, unassigned) [Example 1-12-135-1] , what is its reported pIC50?
Key: > 7.00

###

Target: ATM (Homo sapiens)
Construct: detecting phosphorylation of Chk2 in a human non-small cell lung cancer cell line NCI-H460 (ATCC company); host or cells: NCI-H460 human non-small cell lung cancer cells
Experiment: ATM inhibition test (phosphorylation of Chk2 generated by ionizing radiation, AlphaScreen SureFire)
Assay type: cell-based
Conditions: phosphorylated Chk2 in NCI-H460 cells, ionizing radiation 8Gy, 1 hour after test compound treatment; read-out: ATM inhibitory activity
Experimental: ATM inhibitory effects of a test compound were measured by detecting phosphorylation of Chk2 in a human non-small cell lung cancer cell line NCI-H460 (ATCC company). The level of phosphorylated Chk2 generated by an ionizing radiation was measured using AlphaScreen SureFire (TGR Biosciences). The cells were seeded by 40000 cells per well in 96-well CellBIND® plates (Corning International Inc.), and incubated at 37° C. overnight in 5% CO2. […]
# IC50 per record follows

Sample records with IC50:
* Cn1cc(-c2cc(CNc3ccc4c(c3)Cc3cccc(-c5cc(N6CCOCC6)cc(=O)[nH]5)c3O4)ccn2)cn1 [Example 2-4] | < 0.1 µM
* CN(C)[C@H](CNc1ccc2c(c1)Sc1cccc(-c3cc(N4CCOCC4)cc(=O)[nH]3)c1S2)Cc1ccccc1 [Example 1-2-2] | 0.1 to 0.5 µM
* CCN(C)CCC(Nc1ccc2c(c1)Sc1cccc(-c3cc(N4CCOCC4)cc(=O)[nH]3)c1S2)c1cccc(C)n1 (stereo not drawn) [Example 1-23-1] | < 0.1 µM
* CNc1ncccc1CNc1ccc2c(c1)Sc1cccc(-c3cc(N4CCOCC4)cc(=O)[nH]3)c1S2 [Example 1-12-24] | 0.1 to 0.5 µM
* CN1CCN(c2cc(CNc3ccc4c(c3)Cc3cccc(-c5cc(N6CCOCC6)cc(=O)[nH]5)c3O4)ccn2)CC1 [Example 2-22-2] | 0.1 to 0.5 µM

Exercise: Recorded IC50 for Cc1ccc(C(Nc2ccc3c(c2)Sc2cccc(-c4cc(N5CCOCC5)cc(=O)[nH]4)c2S3)[C@@H]2CN(C)CCO2)nc1 (single isomer, unassigned) [Example 1-56-10] , please?
Key: < 0.1 µM

###

// pIC50 lookup, one value per entry
Target: ATM (Homo sapiens, UniProt Q13315)
Construct: detecting phosphorylation of Chk2 in a human non-small cell lung cancer cell line NCI-H460 (ATCC company); host or cells: NCI-H460 human non-small cell lung cancer cells
Assay: ATM inhibition test (phosphorylation of Chk2 generated by ionizing radiation, AlphaScreen SureFire)
Assay type: cell-based
Settings: phosphorylated Chk2 in NCI-H460 cells, ionizing radiation 8Gy, 1 hour after test compound treatment; read-out: ATM inhibitory activity
pIC50: −log10 of the molar value.

The following compounds have reported results that may help.
* Cc1ccc(C(Nc2ccc3c(c2)Sc2cccc(-c4cc(N5CCOCC5)cc(=O)[nH]4)c2S3)[C@H]2CCN(C)C2)nc1 (single isomer, unassigned) [Example 1-56-15] | > 7.00
* Cc1ccnc(C(CO)Nc2ccc3c(c2)Cc2cccc(-c4cc(N5CCOCC5)cc(=O)[nH]4)c2O3)n1 (stereo not drawn) | 5.70 to 6.30
* O=c1cc(N2CCOCC2)cc(-c2cccc3c2Oc2ccc(NC4CCN(Cc5cncc(F)c5)CC4)cc2C3)[nH]1 | 6.30 to 7.00

Exercise: Could you tell me which pIC50 is on file for COc1ccnc(C(C)Nc2ccc3c(c2)Sc2cccc(-c4cc(N5CCOCC5)cc(=O)[nH]4)c2S3)n1 (stereo not drawn) ?
Key: > 7.00

Exercise: Then this compound: O=c1cc(N2CCOCC2)cc(-c2cccc3c2Oc2ccc(NCc4cncc(C(F)(F)F)c4)cc2C3)[nH]1
Key: > 7.00

Exercise: Lookup CC[C@@H](C(C)Nc1ccc2c(c1)Sc1cccc(-c3cc(N4CCOCC4)cc(=O)[nH]3)c1S2)N1CCOCC1 (stereo partly drawn)
Key: 6.30 to 7.00

###

Biological target: ATM (Homo sapiens, UniProt Q13315)
Construct: detecting phosphorylation of Chk2 in a human non-small cell lung cancer cell line NCI-H460 (ATCC company); host or cells: NCI-H460 human non-small cell lung cancer cells
Experiment: ATM inhibition test (phosphorylation of Chk2 generated by ionizing radiation, AlphaScreen SureFire)
Type: cell-based
Settings: phosphorylated Chk2 in NCI-H460 cells, ionizing radiation 8Gy, 1 hour after test compound treatment; read-out: ATM inhibitory activity
Each entry below lists one item and its recorded IC50 value.

Recorded results for 4 compounds are shown here.
• Cc1cccc(C(C)Nc2ccc3c(c2)Sc2cccc(-c4cc(N5CCOCC5)cc(=O)[nH]4)c2S3)n1 (single isomer, unassigned) [Example 1-12-136-1] = < 100 nM
• CC(CN1CCOCC1)C(=O)Nc1ccc2c(c1)Sc1cccc(-c3cc(N4CCOCC4)cc(=O)[nH]3)c1S2 (stereo not shown) = 500 to 2000 nM
• CC(CCN1CCCC1)Nc1ccc2c(c1)Sc1cccc(-c3cc(N4CCOCC4)cc(=O)[nH]3)c1S2 (stereo not shown) = 100 to 500 nM
• O=c1cc(N2CCOCC2)cc(-c2cccc3c2Sc2ccc(NC4CCCN(Cc5ccccn5)C4)cc2S3)[nH]1 (stereo not shown) = 100 to 500 nM

Exercise: For the compound O=C(CNc1ccc2c(c1)Sc1cccc(-c3cc(N4CCOCC4)cc(=O)[nH]3)c1S2)N1CCCC1 , what IC50 is on record?
Key: 100 to 500 nM

Exercise: What about this compound? Cc1ccnc(CNc2ccc3c(c2)Sc2cccc(-c4cc(N5CCOCC5)cc(=O)[nH]4)c2O3)c1
Key: < 100 nM

Exercise: Then Cc1cccc(C(Nc2ccc3c(c2)Sc2cccc(-c4cc(N5CCOCC5)cc(=O)[nH]4)c2S3)C2CCNC2)n1 (stereo not shown) ?
Key: 100 to 500 nM
